settings: in DMSO, 303.15 K

molecule | solubility (mole fraction)
C[C@@H](O)[C@H]1C(=O)N2C(C(=O)[O-])=C(SC3Cn4cnc[n+]4C3)[C@H](C)[C@H]12 (stereo partly specified) | 9.47e-05

---

settings: in ethanol, 313.15 K
measured_metric: solubility (mole fraction)

molecule | readout_value
C[C@@H](O)[C@H]1C(=O)N2C(C(=O)[O-])=C(SC3Cn4cnc[n+]4C3)[C@H](C)[C@H]12 (stereo partly specified) | 3.97e-05

---

details: in isopropanol, 293.15 K
measured_metric: solubility (mole fraction)

molecule | measured_metric | readout_value
C[C@@H](O)[C@H]1C(=O)N2C(C(=O)[O-])=C(SC3Cn4cnc[n+]4C3)[C@H](C)[C@H]12 (stereo partly specified) | solubility (mole fraction) | 9.98e-06

---

details: in DMSO, 298.15 K
measured_metric: solubility (mole fraction)

molecule | measured_metric | readout_value
C[C@@H](O)[C@H]1C(=O)N2C(C(=O)[O-])=C(SC3Cn4cnc[n+]4C3)[C@H](C)[C@H]12 (stereo partly specified) | solubility (mole fraction) | 8.66e-05

---

conditions: in NMP, 298.15 K
measured_metric: solubility (mole fraction)

compound | readout_value
C[C@@H](O)[C@H]1C(=O)N2C(C(=O)[O-])=C(SC3Cn4cnc[n+]4C3)[C@H](C)[C@H]12 (stereo partly specified) | 9.66e-05

---

conditions: in NMP, 313.15 K

molecule | solubility (mole fraction)
C[C@@H](O)[C@H]1C(=O)N2C(C(=O)[O-])=C(SC3Cn4cnc[n+]4C3)[C@H](C)[C@H]12 (stereo partly specified) | 0.000128

---

settings: in acetonitrile, 288.15 K

molecule | solubility (mole fraction)
C[C@@H](O)[C@H]1C(=O)N2C(C(=O)[O-])=C(SC3Cn4cnc[n+]4C3)[C@H](C)[C@H]12 (stereo partly specified) | 4.07e-05

---

settings: in n-propanol, 318.15 K

compound | solubility (mole fraction)
C[C@@H](O)[C@H]1C(=O)N2C(C(=O)[O-])=C(SC3Cn4cnc[n+]4C3)[C@H](C)[C@H]12 (stereo partly specified) | 3.71e-05

---

details: in NMP, 283.15 K

compound | solubility (mole fraction)
C[C@@H](O)[C@H]1C(=O)N2C(C(=O)[O-])=C(SC3Cn4cnc[n+]4C3)[C@H](C)[C@H]12 (stereo partly specified) | 7.58e-05

---

details: in n-propanol, 288.15 K

compound | solubility (mole fraction)
C[C@@H](O)[C@H]1C(=O)N2C(C(=O)[O-])=C(SC3Cn4cnc[n+]4C3)[C@H](C)[C@H]12 (stereo partly specified) | 1.37e-05

---

details: in NMP, 293.15 K

compound | solubility (mole fraction)
C[C@@H](O)[C@H]1C(=O)N2C(C(=O)[O-])=C(SC3Cn4cnc[n+]4C3)[C@H](C)[C@H]12 (stereo partly specified) | 8.79e-05

---

conditions: in ethyl acetate, 318.15 K
measured_metric: solubility (mole fraction)

molecule | measured_metric | readout_value
C[C@@H](O)[C@H]1C(=O)N2C(C(=O)[O-])=C(SC3Cn4cnc[n+]4C3)[C@H](C)[C@H]12 (stereo partly specified) | solubility (mole fraction) | 0.000111

---

settings: in DMSO, 293.15 K
measured_metric: solubility (mole fraction)

compound | readout_value
C[C@@H](O)[C@H]1C(=O)N2C(C(=O)[O-])=C(SC3Cn4cnc[n+]4C3)[C@H](C)[C@H]12 (stereo partly specified) | 7.86e-05
